Provenance of the data: patent US20180235993A1

System: Human Hepatoma
Test: Cytotoxicity assay (sulforhodamine B, CC50), Human Hepatoma
Assay type: cell-based
Conditions: Huh7 cells, 4 days incubation; read-out: CC50 Huh7
Observed property: CC50

These recorded examples may help you get a feel for the data.
[[record]]
compound = "CC1(O)[C@@H](O)[C@@H](CO)O[C@H]1n1cnc2c(N)ncnc21 (stereo partly drawn) [β-D-2'-CH3-riboA]"
observed_property = "CC50"
value_observed = "40 µM"

[[record]]
compound = "C[C@@]1(O)[C@H](O)[C@@H](CO)O[C@H]1n1ccc(=O)[nH]c1=O [β-D-2'-CH3-riboU]"
observed_property = "CC50"
value_observed = "> 250 µM"

[[record]]
compound = "CC1(O)[C@@H](O)[C@@H](CO)O[C@H]1n1cnc2c(=O)[nH]c(N)nc21 (stereo partly drawn) [β-D-2'-CH3-riboG]"
observed_property = "CC50"
value_observed = "> 250 µM"


Req: Look up and state reported CC50 for C[C@@]1(O)[C@H](O)[C@@H](CO)O[C@H]1n1ccc(N)nc1=O [β-D-2'-CH3-riboC]
Resp: > 250 µM

----------
Test system: VSV
Test: microbe, parasite or virus in culture
Assay type: cell-based
Settings: Vesicular stomatitis virus, read-out: Comparative Antiviral Activity EC50 VSV
Observed property: EC50

[[record]]
compound = "CC1(O)[C@@H](O)[C@@H](CO)O[C@H]1n1cnc2c(N)ncnc21 (some centres unmarked)"
value_observed = "> 100 µM"


Kindly consider the entry below.
Req: Read off the recorded EC50 for C[C@@]1(n2cnc3c(N)ncnc32)O[C@H](CO)[C@H](O)C1O (some centres unmarked)
Resp: > 100 µM

----------
Test: in vitro
Details: hamster
Observed property: CC50 at 4 days (µM)
Express your answer in µM, writing the number without its unit.

Req: Identify CC50 at 4 days associated with the compound CC1(O)[C@@H](O)[C@@H](CO)O[C@H]1n1cnc2c(=O)[nH]c(N)nc21 (stereo partly shown)
Resp: 20

----------
Test system: MDBK
Assay: Cytotoxicity assay (sulforhodamine B, CC50), MDBK
Format: cell-based
Conditions: MDBK cells, 4 days incubation
Observed property: CC50 (µM)
# unit: µM | format: bare number

Answered examples (2):
[[record]]
compound = "C[C@@]1(O)[C@H](O)[C@@H](CO)O[C@H]1n1ccc(N)nc1=O [β-D-2'-CH3-riboC]"
subject_of_test = "MDBK"
observed_property = "CC50"
measurement_unit = "µM"
value_observed = 100

[[record]]
compound = "CC1(O)[C@@H](O)[C@@H](CO)O[C@H]1n1cnc2c(N)ncnc21 (stereo partly drawn) [β-D-2'-CH3-riboA]"
subject_of_test = "MDBK"
observed_property = "CC50"
measurement_unit = "µM"
value_observed = 20


Now for a further compound.
Req: Tell me CC50 reported for CC1(O)[C@@H](O)[C@@H](CO)O[C@H]1n1cnc2c(=O)[nH]c(N)nc21 (stereo partly drawn) [β-D-2'-CH3-riboG]
Resp: 100

----------
Assay: Bioavailability assay in Cynomolgus monkeys
Type: in vivo, Cynomolgus monkey
Conditions: cynomolgus monkey, blood, iv, 10 mg/kg, IV Monkey 2, dose 24.53 mg (10 mg/kg)
Procedure: Within 1 week prior to the study initiation, the cynomolgus monkey was surgically implanted with a chronic venous catheter and subcutaneous venous access port (VAP) to facilitate blood collection and underwent a physical examination including hematology and serum chemistry evaluations and the body weight was recorded. […] Each dosing syringe was weighed before dosing to gravimetrically determine the quantity of formulation administered. […]
Observed property: AUC (ng·h/mL)
Reply numerically in ng·h/mL, unit not repeated.

Req: Please look at this compound and report its AUC: CC1(O)[C@@H](O)[C@@H](CO)O[C@H]1n1cnc2c(=O)[nH]c(N)nc21 (stereo partly drawn) [β-D-2′-CH3-riboG]
Resp: 6580
